pIC50 for assorted compounds
# Target Or Test System: COX-1 (Homo sapiens)
# Sequence (P23219 24-599): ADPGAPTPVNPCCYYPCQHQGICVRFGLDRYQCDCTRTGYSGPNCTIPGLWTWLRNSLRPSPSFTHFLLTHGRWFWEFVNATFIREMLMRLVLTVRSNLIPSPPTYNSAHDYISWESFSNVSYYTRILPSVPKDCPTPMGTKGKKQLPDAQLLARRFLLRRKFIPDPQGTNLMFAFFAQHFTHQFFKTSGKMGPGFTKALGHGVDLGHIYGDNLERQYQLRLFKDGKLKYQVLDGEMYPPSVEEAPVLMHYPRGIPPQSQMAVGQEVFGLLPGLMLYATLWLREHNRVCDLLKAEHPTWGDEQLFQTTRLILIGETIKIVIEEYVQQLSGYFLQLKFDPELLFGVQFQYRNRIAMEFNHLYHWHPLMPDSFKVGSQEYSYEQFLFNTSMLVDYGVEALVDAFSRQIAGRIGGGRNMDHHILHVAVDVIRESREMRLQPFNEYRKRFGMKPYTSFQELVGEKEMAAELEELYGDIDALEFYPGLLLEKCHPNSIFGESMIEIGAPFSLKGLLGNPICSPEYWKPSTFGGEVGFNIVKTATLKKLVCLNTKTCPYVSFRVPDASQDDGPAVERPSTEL
To interpret pIC50, take it as minus log10 of a concentration measured in moles per litre.

Give pIC50 (COX-1 (Homo sapiens)) of the following compound: CC(C)Cc1ccc(C(C)C(=O)NCC(=O)Nc2ccc(O)cc2)cc1 (stereo not drawn)
5.57

What reported pIC50 corresponds to CC(C)Cc1ccc(C(C)C(=O)N[C@@H](CCC(N)=O)C(=O)Nc2ccc(O)cc2)cc1 (stereo partly drawn) on COX-1 (Homo sapiens)?
5.08

Short answer please: pIC50, COX-1 (Homo sapiens), entry CC(C)Cc1ccc(C(C)C(=O)N[C@H](C(=O)Nc2ccc(O)cc2)C(C)C)cc1 (stereo partly drawn)
4.98

Provide value of pIC50 for this record tested with COX-1 (Homo sapiens): CC[C@H](C)[C@@H](NC(=O)C(C)c1ccc(CC(C)C)cc1)C(=O)Nc1ccc(O)cc1 (stereo partly drawn)
5.31

Observed pIC50 on COX-1 (Homo sapiens) for CC(C)Cc1ccc(C(C)C(=O)N[C@@H](Cc2ccccc2)C(=O)Nc2ccc(O)cc2)cc1 (stereo partly drawn) , please.
4.88

Query compound follows.
For the record CC(C)Cc1ccc(C(C)C(=O)N[C@@H](CC(C)C)C(=O)Nc2ccc(O)cc2)cc1 (stereo partly drawn) , what value of pIC50 is listed for COX-1 (Homo sapiens)?
5.58

Where do the numbers come from? From patent US11850220B2.
